read-out: MYC, MYC (gene 4609); assay: LTEA_HepaRG_MYC: Life Technologies and Expression Analysis (LTEA) Assay for MYC using HepaRG (AID 2283518); details: mRNA level, 48 h; actives raise or lower the signal
Activity calls are given as the source filed them. How the source made its calls: active means hit-call score of the fitted dose curve at least 0.9, where 1 is the maximum; inactive means score below 0.9.
Outcomes: label 1 for active, label 0 for inactive

> print(dat)
                                    molecule  label.value
 1  O=C(N[C@H](c1ccccc1)[C@@H]1CN2CCC1CC2)c1c(Cl)ccc(C(F)(F)F)c1Cl      label 1
 2                     c1ccc2c(c1)oc1ccccc12      label 0
 3          CC(C)COC(=O)c1ccccc1C(=O)OCC(C)C      label 0
 4                                O=Cc1ccco1      label 0
 5                             CN(C)c1ccccc1      label 0
 6              c1ccc2c(c1)-c1cccc3cccc-2c13      label 0
 7  Cn1cc(-c2ccccc2)c(=O)c(-c2cccc(C(F)(F)F)c2)c1      label 0
 8                   Nc1ccc(Cc2ccc(N)cc2)cc1      label 0
 9                       C=CCc1ccc2c(c1)OCO2      label 0
10                        CCCSC(=O)N(CCC)CCC      label 0
11            CC(C)N(Cc1ccccc1)C(=O)C(C)(C)C      label 0
12                              Clc1ccccc1Cl      label 0
13                  Cc1cc(N=Nc2ccccc2C)ccc1N      label 1
14                               Oc1ccccc1Cl      label 0
15                     Cc1ccc(N=C=O)cc1N=C=O      label 1
16                          COC(=O)c1ccccc1N      label 0
17                                CCN(CC)CCO      label 0
18                  COC(=O)Nc1nc2ccccc2[nH]1      label 0
19            CCCCCOC(=O)c1ccccc1C(=O)OCCCCC      label 0
20       CN(C)c1ccc(C(=O)c2ccc(N(C)C)cc2)cc1      label 0
21  CCCCCCCCCCCCCN1CC(C)OC(C)C1 (configuration not stated)      label 0
22                   CN(C)C(=O)Nc1ccc(Cl)cc1      label 0
23  CCNS(=O)(=O)C(F)(F)C(F)(F)C(F)(F)C(F)(F)C(F)(F)C(F)(F)C(F)(F)C(F)(F)F      label 0
24      CC(C)(C)OOC(C)(C)CCC(C)(C)OOC(C)(C)C      label 0
25                                   OCCOCCO      label 0
26                            Nc1ccc(Cl)cc1N      label 1
27                   Nc1ccc(Oc2ccc(N)cc2)cc1      label 0
